assay: qHTS assay to identify small molecule agonists of the estrogen receptor alpha (ER-alpha) signaling pathway in the presence of an antagonist - cell viability counter screen (AID 1259386); details: VM7Luc4E2 viability, CellTiter-Fluor fluorescence, 22 h; series mostly up to 92.4 µM;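 also: cells exposed to compounds for 22 h at 37 °C before the viability read; nearly all actives have a fitted effect of over 30% in size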
Inconclusive results are not listed. Calls of active or inactive are those of the source. Calls follow the shape of the dose curve; as a rule, active = well fitted cell-killing curve with a large enough effect in the repeat runs; inconclusive = weak or mixed curves, or effect the other way; inactive = no such curve, though single readings can be large or run the other way.
measurement name: outcome

>>> result("O=C(O)c1ccc2c(c1)C(=O)OC2=O")
"inactive"
>>> result("CC1=C(C)S(=O)(=O)CCS1(=O)=O")
"inactive"
>>> result("Cc1cccnc1")
"inactive"
>>> result("CCCCCOC(C)=O")
"inactive"
>>> result("CN(C)CCC(c1ccc(Cl)cc1)c1ccccn1 (stereo not given)")
"inactive"
>>> result("O=C(O)c1ccc(C(=O)O)cc1")
"inactive"
>>> result("C=C(C)C(=O)Nc1ccc(Cl)c(Cl)c1")
"inactive"
>>> result("CCc1cccc(C)c1N")
"inactive"
>>> result("CCCCCCCCC/C=C/CC1CC(=O)OC1=O (stereo not given)")
"inactive"
>>> result("C#C[C@]1(O)CC[C@H]2[C@@H]3CCC4=CC(=O)CC[C@@H]4[C@H]3CC[C@@]21C")
"inactive"
>>> result("Cc1cccc(O)c1")
"inactive"
>>> result("CCCCCCCCCCCCS")
"inactive"
>>> result("c1ccc2c(c1)ccc1ccccc12")
"inactive"
>>> result("CC(C)(C)[C@@H](O)[C@@H](Cc1ccc(Cl)cc1)n1cncn1")
"inactive"
>>> result("CCN(CC)c1ccc(C(=O)c2ccccc2C(=O)O)c(O)c1")
"inactive"

====

target: Thyrotropin receptor (Homo sapiens); assay: qHTS assay to identify small molecule antagonists of the thyroid stimulating hormone receptor (TSHR) signaling pathway (AID 1259385); details: TSHR-HEK293 cAMP HTRF, TSH-stimulated antagonist mode; series mostly up to 92.4 µM; also: nearly all actives have a fitted effect of over 20% in size
Results filed as inconclusive are left out. Active and inactive are the calls of the source. Calls follow the shape of the full dose curve.
Outcomes: T = active, F = inactive

>>> classification("Cc1ccc(S(N)(=O)=O)cc1")
"F"
>>> classification("CC(=O)c1ccccc1")
"F"
>>> classification("CCCCOC(=O)COc1ccc(Cl)cc1Cl")
"F"
>>> classification("CC(=O)CC(=O)Nc1ccccc1")
"F"
>>> classification("C#CCN(C)Cc1ccccc1")
"F"
>>> classification("CCc1cccc(C)c1N")
"F"
>>> classification("C=C(C)C(=O)O[C@H]1C[C@@H]2CC[C@@]1(C)C2(C)C")
"F"
>>> classification("NNc1nncc2ccccc12")
"F"
>>> classification("FC(F)(F)c1ccc(Cl)c(Cl)c1")
"F"
>>> classification("COc1cc(Cc2cnc(N)nc2N)cc(OC)c1OC")
"F"
>>> classification("O=C(O)c1ccccc1C(c1ccc(O)cc1)c1ccc(O)cc1")
"F"
>>> classification("N[C@@H](Cc1cc(I)c(Oc2cc(I)c(O)c(I)c2)c(I)c1)C(=O)O")
"F"
>>> classification("Oc1cccc2ccccc12")
"F"
>>> classification("O=C(OCCOCCOC(=O)c1ccccc1)c1ccccc1")
"F"
>>> classification("CCCCN(CCCC)CCCC")
"F"
>>> classification("CCCCCCCCCC")
"F"
>>> classification("C[Si](O[Si](C)(C)C)O[Si](C)(C)C")
"F"
>>> classification("O=S(=O)(O)c1ccc2ccccc2c1")
"F"
>>> classification("C=CCNC(N)=S")
"F"
>>> classification("c1ccc2c(c1)ccc1ccccc12")
"F"
>>> classification("CCCCC(CC)COC(=O)C(C#N)=C(c1ccccc1)c1ccccc1 (centres undefined)")
"T"
>>> classification("CC(C)(C)[C@@H](O)[C@@H](Cc1ccc(Cl)cc1)n1cncn1")
"F"
>>> classification("CC1=CCC2CC1C2(C)C (centres undefined)")
"F"
>>> classification("CCCCC(CC)COC(=O)CS (centres undefined)")
"F"
>>> classification("C#C[C@]1(O)CC[C@H]2[C@@H]3CCC4=CC(=O)CC[C@@H]4[C@H]3CC[C@@]21C")
"F"
>>> classification("C=CCOC(=O)c1ccccc1C(=O)OCC=C")
"F"
>>> classification("O=C(O)c1cc(=O)c2c(OCC(O)COc3cccc4oc(C(=O)O)cc(=O)c34)cccc2o1")
"F"
>>> classification("CCC(O)OC(O)CC (centres undefined)")
"F"
>>> classification("O=C(O)c1ccc2c(c1)C(=O)OC2=O")
"F"
